# MEASURED_TARGET: Human CB1R (Cannabinoid receptor 1) (Homo sapiens, UniProt P21554)
# Sequence (P21554 whole entry): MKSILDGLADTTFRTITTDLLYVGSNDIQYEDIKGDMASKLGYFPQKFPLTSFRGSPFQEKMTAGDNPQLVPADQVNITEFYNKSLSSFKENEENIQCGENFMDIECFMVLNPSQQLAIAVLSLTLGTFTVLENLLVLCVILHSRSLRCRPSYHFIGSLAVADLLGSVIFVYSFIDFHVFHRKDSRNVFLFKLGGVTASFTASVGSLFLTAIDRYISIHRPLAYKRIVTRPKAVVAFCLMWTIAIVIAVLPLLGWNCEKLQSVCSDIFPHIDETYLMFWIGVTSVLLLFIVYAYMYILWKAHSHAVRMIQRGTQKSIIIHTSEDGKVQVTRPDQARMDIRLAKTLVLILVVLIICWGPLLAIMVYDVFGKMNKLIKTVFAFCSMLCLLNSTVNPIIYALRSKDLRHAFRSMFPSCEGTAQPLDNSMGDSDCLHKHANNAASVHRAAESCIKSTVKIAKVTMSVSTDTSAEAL
# PROCEDURE_TEXT: CB-1 in vitro cAMP (HTRF) assay
# Assay type: cell-based
# CONDITION_SET: CB1 HEK_cAMP EC50, HEK cells, cAMP HTRF, 250 nM forskolin; mean where tested more than once

MOLECULE | MEASURED_TARGET | EC50 [nM]
Clc1ccc(C(c2ccc(Cl)cc2)c2ccc3nc(C4CC4)n(CC4CCOCC4)c3c2)cc1 [Example 120] | Human CB1R (Cannabinoid receptor 1) (Homo sapiens, UniProt P21554) | 24.9

* * *

pEC50 reference
# MEASURED_TARGET: Human CB2R (Cannabinoid receptor 2) (Homo sapiens)
# Sequence (P34972 whole entry): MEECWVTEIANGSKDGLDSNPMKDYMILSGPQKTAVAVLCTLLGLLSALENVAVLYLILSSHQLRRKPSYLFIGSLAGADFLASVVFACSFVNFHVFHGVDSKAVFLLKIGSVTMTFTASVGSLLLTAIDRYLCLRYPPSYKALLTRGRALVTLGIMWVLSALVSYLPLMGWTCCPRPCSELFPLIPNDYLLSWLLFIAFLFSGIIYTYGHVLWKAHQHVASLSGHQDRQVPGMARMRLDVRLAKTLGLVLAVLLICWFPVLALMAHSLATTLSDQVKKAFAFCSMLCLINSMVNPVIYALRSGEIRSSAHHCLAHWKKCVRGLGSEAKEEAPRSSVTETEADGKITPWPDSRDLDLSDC
# PROCEDURE_TEXT: CB-2 in vitro cAMP (HTRF) assay
# CONDITION_SET: HEK cells, cAMP HTRF, 250 nM forskolin; mean where tested more than once; read-out: CB2 HEK_cAMP EC50
pEC50: −log10 of the molar value.

MOLECULE | MEASURED_TARGET | VALUE_RELATION_SIGN | pEC50
CCOC(=O)COc1cccc(-n2c(C3CC3)nc3ccc(C(c4ccc(Cl)cc4)c4ccc(Cl)cc4)cc32)c1 | Human CB2R (Cannabinoid receptor 2) (Homo sapiens) | = | 5.04
Clc1ccc(C(c2ccc(Cl)cc2)c2ccc3nc(C4CC4)n(CCOc4cccc(Br)c4)c3c2)cc1 | Human CB2R (Cannabinoid receptor 2) (Homo sapiens) | = | 5.12
NC(=O)COc1ccc(-n2c(C3CC3)nc3ccc(C(c4ccc(Cl)cc4)c4ccc(Cl)cc4)cc32)cc1 | Human CB2R (Cannabinoid receptor 2) (Homo sapiens) | = | 5.10
CCOC(=O)N1CCC(n2c(C3CNC3)nc3ccc(C(c4ccc(Cl)cc4)c4nccs4)cc32)CC1 (stereo not shown) | Human CB2R (Cannabinoid receptor 2) (Homo sapiens) | < | 5.00
Clc1ccc(Cn2cnc3ccc(C(c4ccc(Cl)cc4)c4nccs4)cc32)cc1 (stereo not shown) | Human CB2R (Cannabinoid receptor 2) (Homo sapiens) | = | 5.84
Cc1nc2ccc(C(c3ccc(Cl)cc3)c3nccs3)cc2n1C1Cc2ccccc2C1 (stereo not shown) | Human CB2R (Cannabinoid receptor 2) (Homo sapiens) | < | 5.00
O=C(O)c1ccc(Cl)c(CN2CCC(n3c(C4CC4)nc4ccc(C(c5ccc(Cl)cc5)c5ccc(Cl)cc5)cc43)CC2)c1 | Human CB2R (Cannabinoid receptor 2) (Homo sapiens) | = | 5.32
O=C(Oc1ccccc1)N1CCC(n2c(C3CC3)nc3ccc(C(c4ccc(Cl)cc4)c4ccc(Cl)cc4)cc32)CC1 | Human CB2R (Cannabinoid receptor 2) (Homo sapiens) | < | 4.68
O=C(O)c1cccc(CN2CCC(n3c(C4CC4)nc4ccc(C(c5ccccc5)c5ccc(Cl)cc5)cc43)CC2)c1 (stereo not shown) | Human CB2R (Cannabinoid receptor 2) (Homo sapiens) | < | 5.00
Cc1nc2ccc(C(c3ccc(Cl)cc3)c3nc(C(F)(F)F)cs3)cc2n1Cc1ccc(Cl)cc1 (stereo not shown) | Human CB2R (Cannabinoid receptor 2) (Homo sapiens) | < | 5.13
O=C(O)c1cc(S(=O)(=O)N2CCC(n3c(C4CC4)nc4ccc(C(c5ccc(Cl)cc5)c5ccc(Cl)cc5)cc43)CC2)ccc1F | Human CB2R (Cannabinoid receptor 2) (Homo sapiens) | = | 5.11
OC(c1ccc(Cl)cc1)(c1ccc2nc(C3CC3)n(C3CCc4ccccc4C3)c2c1)c1nccs1 (stereo not shown) | Human CB2R (Cannabinoid receptor 2) (Homo sapiens) | < | 5.00
O=C(O)c1ccc(N[C@H]2CC[C@H](n3c(C4CC4)nc4ccc(C(c5ccc(Cl)cc5)c5ccc(Cl)cc5)cc43)CC2)cc1 | Human CB2R (Cannabinoid receptor 2) (Homo sapiens) | = | 5.79
CCC(c1cccc(C(=O)O)c1)N1CCC(n2c(C3CC3)nc3ccc(C(c4ccc(Cl)cc4)c4ccc(Cl)cc4)cc32)CC1 (stereo not shown) | Human CB2R (Cannabinoid receptor 2) (Homo sapiens) | = | 5.36
COC(=O)c1ccc(OCCn2c(C3CC3)nc3ccc(C(c4ccc(Cl)cc4)c4ccc(Cl)cc4)cc32)cc1 | Human CB2R (Cannabinoid receptor 2) (Homo sapiens) | = | 6.06
Cc1cc(C(=O)O)sc1S(=O)(=O)N1CCC(n2c(C3CC3)nc3ccc(C(c4ccc(Cl)cc4)c4ccc(Cl)cc4)cc32)CC1 | Human CB2R (Cannabinoid receptor 2) (Homo sapiens) | = | 5.84
Clc1ccc(C(c2ccc3ncn(-c4cccc(Cl)c4)c3c2)c2nccs2)cc1 (stereo not shown) | Human CB2R (Cannabinoid receptor 2) (Homo sapiens) | < | 5.00
O=S(=O)(N1CCC(n2c(C3CCCO3)nc3ccc(C(c4ccc(Cl)cc4)c4ccc(Cl)cc4)cc32)CC1)C(F)(F)F (stereo not shown) | Human CB2R (Cannabinoid receptor 2) (Homo sapiens) | < | 5.00
O=C(O)c1ccc(O)c(CN2CCC(n3c(C4CC4)nc4ccc(C(c5ccc(Cl)cc5)c5ccc(Cl)cc5)cc43)CC2)c1 | Human CB2R (Cannabinoid receptor 2) (Homo sapiens) | < | 4.38
O=S(=O)(N1CCC(n2cnc3ccc(C(c4ccc(Cl)cc4)c4nccs4)cc32)CC1)C(F)(F)F (stereo not shown) | Human CB2R (Cannabinoid receptor 2) (Homo sapiens) | < | 5.00
C=C(CO)c1nc2ccc(C(c3ccc(Cl)cc3)c3ccc(Cl)cc3)cc2n1C1CCN(S(=O)(=O)C(F)(F)F)CC1 | Human CB2R (Cannabinoid receptor 2) (Homo sapiens) | < | 5.00
CCOC(=O)N1CCC(n2c(C(C)(C)C)nc3ccc(C(c4ccc(Cl)cc4)c4nccs4)cc32)CC1 (stereo not shown) | Human CB2R (Cannabinoid receptor 2) (Homo sapiens) | < | 5.00
COC(=O)c1cccc(N2CCC(Cn3c(C4CC4)nc4ccc(C(c5ccc(Cl)cc5)c5ccc(Cl)cc5)cc43)CC2)c1 | Human CB2R (Cannabinoid receptor 2) (Homo sapiens) | < | 5.00
Cc1nc2ccc(C(c3ccc(Cl)cc3)c3nccs3)cc2n1-c1cccc(Cl)c1 (stereo not shown) | Human CB2R (Cannabinoid receptor 2) (Homo sapiens) | < | 5.00
O=C(O)c1cc(CN2CCC(n3c(C4CC4)nc4ccc(C(c5ccc(Cl)cc5)c5ccc(Cl)cc5)cc43)CC2)ccc1O | Human CB2R (Cannabinoid receptor 2) (Homo sapiens) | = | 5.49
Cc1cc(S(=O)(=O)N2CCC(n3c(C4CC4)nc4ccc(C(c5ccc(Cl)cc5)c5ccc(Cl)cc5)cc43)CC2)ccc1C(=O)O | Human CB2R (Cannabinoid receptor 2) (Homo sapiens) | = | 5.33
O=C(O)c1ccc(CN2CCC(n3c(C4CC4)nc4ccc(C(c5ccc(Cl)cc5)c5ccc(Cl)cc5)cc43)CC2)s1 | Human CB2R (Cannabinoid receptor 2) (Homo sapiens) | = | 5.31
O=C(O)c1ccc(C(=O)N2CCC(n3c(C4CC4)nc4ccc(C(c5ccc(Cl)cc5)c5ccc(Cl)cc5)cc43)CC2)cc1 | Human CB2R (Cannabinoid receptor 2) (Homo sapiens) | < | 5.00

* * *

# PROCEDURE_TEXT: Mouse Fast PK/BBB: plasma and brain concentration
# Assay type: in vivo, Male C57bl/6j mice
# CONDITION_SET: male, C57bl/6j, mouse, plasma; mice, dose 20 mg/kg oral, 1 hr; read-out: Plasma Mean Conc. ± Std. Dev
One threshold, 3000 ng/mL, splits the recorded concentration at 1 h values: lower ones are yes, equal or higher ones are no.

MOLECULE | CLASS_NAME
CCc1nc2ccc(C(c3ccc(Cl)cc3)c3nccs3)cc2n1C1CCN(S(=O)(=O)C(F)(F)F)CC1 (centres unmarked) | yes
CCc1nc2ccc(C(c3ccc(Cl)cc3)c3ccc(Cl)cc3)cc2n1CC1CCN(S(=O)(=O)C(F)(F)F)CC1 | yes
COc1ccc(C(c2ccc(OC)cc2)c2ccc3nc(C4CCC4)n(C4CCN(S(=O)(=O)C(F)(F)F)CC4)c3c2)cc1 | yes
O=S(=O)(N1CCC(Cn2c(C3CC3)nc3ccc(C(c4ccc(Cl)cc4)c4ccc(Cl)cc4)cc32)CC1)C(F)(F)F | no
O=S(=O)(c1cccc(O)c1)N1CCC(n2c(C3CC3)nc3ccc(C(c4ccc(Cl)cc4)c4ccc(Cl)cc4)cc32)CC1 | yes

* * *

# PROCEDURE_TEXT: Chronic DIO Mouse: plasma and brain concentrations
# Type: in vivo
# CONDITION_SET: plasma, oral, DIO mice, 1 mg/kg daily, 2 Hours Post Dose, Day 25, read-out: Plasma Concentration (Std Dev)

INPUT_SMILES | concentration at 2 h
O=C(O)c1cccc(CN2CCC(n3c(C4CC4)nc4ccc(C(c5ccc(Cl)cc5)c5ccc(Cl)cc5)cc43)CC2)c1 | 0.288 µg/mL

* * *

# MEASURED_TARGET: Human CB2R (Cannabinoid receptor 2) (Homo sapiens)
# PROCEDURE_TEXT: CB-2 in vitro cAMP (HTRF) assay
# CONDITION_SET: HEK cells, cAMP HTRF, 250 nM forskolin; mean where tested more than once; read-out: CB2 HEK_cAMP EC50
MEASURED_PROPERTY: EC50

MOLECULE | MEASURED_TARGET | MEASURED_PROPERTY | RESULT
NC(=O)c1ccc(S(=O)(=O)N2CCC(n3c(C4CC4)nc4ccc(C(c5ccc(Cl)cc5)c5ccc(Cl)cc5)cc43)CC2)cc1 | Human CB2R (Cannabinoid receptor 2) (Homo sapiens) | EC50 | > 10 µM
O=C(O)COc1ccc(-n2c(C3CC3)nc3ccc(C(c4ccc(Cl)cc4)c4ccc(Cl)cc4)cc32)cc1 | Human CB2R (Cannabinoid receptor 2) (Homo sapiens) | EC50 | > 10 µM
O=C(c1cn[nH]n1)N1CCC(n2c(C3CC3)nc3ccc(C(c4ccc(Cl)cc4)c4ccc(Cl)cc4)cc32)CC1 | Human CB2R (Cannabinoid receptor 2) (Homo sapiens) | EC50 | 6.5 µM
O=S(=O)(c1ccc(O)cc1)N1CCC(n2c(C3CC3)nc3ccc(C(c4ccc(Cl)cc4)c4ccc(Cl)cc4)cc32)CC1 | Human CB2R (Cannabinoid receptor 2) (Homo sapiens) | EC50 | > 10 µM
CCOC(=O)N1CCC(n2c(N)nc3ccc(C(c4ccc(Cl)cc4)c4nccs4)cc32)CC1 (centres unmarked) | Human CB2R (Cannabinoid receptor 2) (Homo sapiens) | EC50 | > 10 µM
Clc1ccc(C(c2ccc3nc(C4CNC4)n(CCc4cccc(Cl)c4)c3c2)c2nccs2)cc1 (centres unmarked) | Human CB2R (Cannabinoid receptor 2) (Homo sapiens) | EC50 | > 10 µM
O=S(=O)(N1CCC(n2c(-c3ccc(Cl)cc3)nc3ccc(C(c4ccc(Cl)cc4)c4nccs4)cc32)CC1)C(F)(F)F (centres unmarked) | Human CB2R (Cannabinoid receptor 2) (Homo sapiens) | EC50 | > 10 µM
O=C(O)CCC(=O)N1CCC(n2c(C3CC3)nc3ccc(C(c4ccc(Cl)cc4)c4ccc(Cl)cc4)cc32)CC1 | Human CB2R (Cannabinoid receptor 2) (Homo sapiens) | EC50 | > 10 µM
O=C(O)c1ccc(CCn2c(C3CC3)nc3ccc(C(c4ccc(Cl)cc4)c4ccc(Cl)cc4)cc32)cc1 | Human CB2R (Cannabinoid receptor 2) (Homo sapiens) | EC50 | 1.7 µM
NC(=O)c1ccc(CN2CCC(n3c(C4CC4)nc4ccc(C(c5ccc(Cl)cc5)c5ccc(Cl)cc5)cc43)CC2)nc1 | Human CB2R (Cannabinoid receptor 2) (Homo sapiens) | EC50 | 9.1 µM
COc1cc(C(c2ccc(Cl)cc2)c2ccc(Cl)cc2)cc2c1nc(C1CC1)n2C1CCN(S(=O)(=O)C(F)(F)F)CC1 | Human CB2R (Cannabinoid receptor 2) (Homo sapiens) | EC50 | 4.59 µM
O=C(O)CN1CCC(n2c(C3CC3)nc3ccc(C(c4ccc(Cl)cc4)c4ccc(Cl)cc4)cc32)CC1 | Human CB2R (Cannabinoid receptor 2) (Homo sapiens) | EC50 | > 21 µM
Clc1ccc(C(c2ccc3nc(C4CC4)n(Cc4ccccn4)c3c2)c2nccs2)cc1 (centres unmarked) | Human CB2R (Cannabinoid receptor 2) (Homo sapiens) | EC50 | > 10 µM
NS(=O)(=O)N1CCC(n2c(C3CC3)nc3ccc(C(c4ccc(Cl)cc4)c4ccc(Cl)cc4)cc32)CC1 | Human CB2R (Cannabinoid receptor 2) (Homo sapiens) | EC50 | > 10 µM

Where do these numbers come from? They come from patent US20190031618A1.
